Reference source for all entries: patent US20200102347A1

Target: T1, MaturePDGF-β_NterminalPeptide
T1 construct: an N-terminal G was added and is left out of the numbering; also called PDGF-β peptide
T1 peptide: RhodamineB-GSLGSLTIAEPAMIAE
Test: fluorescence anisotropy; 20 nM rhodamine PDGF-β N-terminal peptide, unlabeled RPtag large variant titrated; bar of Ka = 1/Kd, left axis
No end group written: not given here. *: point of attachment. RhodamineB = CCN(CC)c1ccc2c(-c3ccccc3C(=O)*)c3ccc(=[N+](CC)CC)cc-3oc2c1
measured quantity: binding result

k129f (designed binder, also called RPtag(large) K129F) single chain: MGSSCHHHHHHSQDPNSSSMKEGKTIGLVISTLNNPFFVTLKNGAEEKAKELGYKIIVEDSQNDSSKELSNVEDLIQQKVDVLLINPVDSDAVVTAIKEANSKNIPVITIDRSANGGDVVSHIASDNVFGGEMAAEFIAKALKGKGNVVELEGIPGASAARDRGKGFDEAIAKYPDIKIVAKQAADFDRSKGLSVMENILQAQPKIDAVFAQNDEMALGAIKAIEAANRQGIIVVGFDGTEDALKAIKEGKMAATIAQQPALMGSLGVEMADKYLK ... binds
